System: primary human hepatic stellate cells (donor 1)
protocol-details: scaled lipid accumulation score (0 = DMSO-like, 1 = nortriptyline-like); higher = stronger HSC inactivation (lipid re-accumulation), active = hit call of the paper
measurement-setup: library stock concentration: 3.33 mM; 48 h
In all, about 5,800 compounds went through this assay and about 620 (11%) showed activity.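 The calls were made as follows: active = score above a cut-off or among the top three wells of a plate; in these data no inactive exceeds 0.85.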 The sample as a whole holds a higher share of actives than the screen did.
Permitted responses: active, inactive

Outcome logged for CS(=O)(=O)CCNCc1ccc(-c2ccc3ncnc(Nc4ccc(OCc5cccc(F)c5)c(Cl)c4)c3c2)o1.Cc1ccc(S(=O)(=O)O)cc1.Cc1ccc(S(=O)(=O)O)cc1 in this assay:
active

Outcome logged for CN(C)CCSSCCNC(=O)C1CCN(C(=O)CSc2ccc(Cl)cc2)CC1 in this assay:
inactive

Test call, this compound: CC1(C)S[C@@H]2[C@H](NC(=O)[C@H](N)c3ccc(O)cc3)C(=O)N2[C@H]1C(=O)O
inactive

Please share the test call associated with CCn1cc(NC(=S)Nc2cc(Cl)ccc2OC)c(C(N)=O)n1 .
inactive

Hello, I am checking results. What call was entered for CC[C@]1(O)C[C@@H]2CN(CCc3c([nH]c4ccccc34)[C@@](C(=O)OC)(c3cc4c(cc3OC)N(C)[C@H]3[C@@](O)(C(=O)OC)[C@H](OC(C)=O)[C@]5(CC)C=CCN6CC[C@]43[C@@H]65)C2)C1 ?
inactive

Check the results log: what was the call for COc1ccc(Cl)cc1NC(=O)Nc1cc(C)nc2ccccc12 ?
inactive

Just curious, what result did CC(C)N(C[C@H]1O[C@@H](n2cnc3c(N)ncnc32)[C@H](O)[C@@H]1O)[C@H]1C[C@@H](CCc2nc3cc(C(C)(C)C)ccc3[nH]2)C1 get here?
inactive
